Target: T1, recombinant human IL-2 receptor beta containing a His-tag and Avi-tag (human, UniProt P14784 27-239)
T1 construct: Bought; attached to the SAX2 biosensor; also called CD122; IL-2R β; not shown: His-tag and Avi-tag
T1 sequence (looked up): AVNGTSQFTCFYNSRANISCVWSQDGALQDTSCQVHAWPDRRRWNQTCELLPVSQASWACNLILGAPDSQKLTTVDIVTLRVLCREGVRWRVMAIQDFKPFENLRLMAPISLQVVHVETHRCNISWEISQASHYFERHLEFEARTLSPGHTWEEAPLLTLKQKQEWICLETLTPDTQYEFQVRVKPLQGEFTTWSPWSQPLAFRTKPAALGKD
Test: BLI (Octet R8), receptor on SAX2 sensor
Primed or numbered codes have the meaning given here. [ ]: non-standard residue; d: D form. Ygp″ = O-(8x polyethylene glycol-amino)-tyrosine; Yn3″ = O-(9x polyethylene glycol-azido)-tyrosine; hSer = N[C@@H](CCO)C(=O)O; Nle = CCCC[C@H](N)C(=O)O
readout-label: kon (M⁻¹ s⁻¹)
Numbers only, in M⁻¹ s⁻¹.

QUERY: So what's the measured kon for this one? CMP-168, MMP2 cleaved (ligand, ends and bridges not checked; also: MMP2 cleaved, ring opened, cut site and remnants not given here, Tested after MMP2 treatment) APTSSSTKKTQLQLEHLLLDLQEILNGINNYKNPKLTR[Nle]L[hSer][Yn3″]KF[Ygp″][Nle]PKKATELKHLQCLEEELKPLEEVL[hSer]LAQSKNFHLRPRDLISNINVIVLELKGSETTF[hSer]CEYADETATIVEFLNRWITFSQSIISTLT
RESULT: 789
